- Test system: Yersinia pseudotuberculosis
- assay-text: IC25 growth inhibition; higher = less potent
quantity: IC25 growth inhibition

| molecule | reported-result |
| --- | --- |
| CN[C@H](CC(C)C)C(=O)N[C@H]1C(=O)N[C@@H](CC(N)=O)C(=O)N[C@H]2C(=O)N[C@H]3C(=O)N[C@H](C(=O)N[C@H](C(=O)O)c4cc(O)cc(O)c4-c4cc3ccc4O)[C@H](O)c3ccc(c(Cl)c3)Oc3cc2cc(c3O[C@@H]2O[C@H](CO)[C@@H](O)[C@H](O)[C@H]2O[C@H]2C[C@](C)(N)[C@H](O)[C@H](C)O2)Oc2ccc(cc2Cl)[C@H]1O | > 160 µM |
| O=C(Nc1ccc([N+](=O)[O-])cc1Cl)c1cc(Cl)ccc1O [Niclosamide] | > 20 µM |
| COc1ccc2[nH]c([S+]([O-])Cc3ncc(C)c(OC)c3C)nc2c1 (stereo not given) | > 160 µM |
| OC(Cn1cncn1)(Cn1cncn1)c1ccc(F)cc1F | > 160 µM |
| CC[C@H]1OC(=O)[C@H](C)[C@@H](O[C@H]2C[C@@](C)(OC)[C@@H](O)[C@H](C)O2)[C@H](C)[C@@H](O[C@@H]2O[C@H](C)C[C@H](N(C)C)[C@H]2O)[C@](C)(O)C[C@@H](C)C(=O)[C@H](C)[C@@H](O)[C@]1(C)O | ≤ 40 µM |
| CN[C@H]1CC[C@@H](c2ccc(Cl)c(Cl)c2)c2ccccc21 | ≤ 160 µM |
| CCOC(=O)C1=C(C)NC(C)=C(C(=O)OC)C1c1cccc(Cl)c1Cl (stereo not given) | > 80 µM |
| CCOC(=O)N1CCC(=C2c3ccc(Cl)cc3CCc3cccnc32)CC1 | > 40 µM |
| C#C[C@]1(O)CC[C@H]2[C@@H]3CCc4cc(O)ccc4[C@H]3CC[C@@]21C | > 80 µM |
| COc1cc(C(=O)NS(=O)(=O)c2ccccc2C)ccc1Cc1cn(C)c2ccc(NC(=O)OC3CCCC3)cc12 | > 80 µM |
| CN(C)CCCN1c2ccccc2Sc2ccc(Cl)cc21 | ≤ 160 µM |
| C[C@H]1c2cccc(O)c2C(=O)C2=C(O)[C@]3(O)C(=O)C(C(N)=O)=C(O)[C@@H](N(C)C)[C@@H]3[C@@H](O)[C@@H]21 | ≤ 40 µM |
| Nc1nc(=S)c2ncn([C@@H]3O[C@H](CO)[C@@H](O)[C@H]3O)c2[nH]1 | ≤ 20 µM |
| CCn1cc(C(=O)O)c(=O)c2cc(F)c(N3CCNCC3)cc21 | ≤ 10 µM |
| O=c1oc2ccccc2c(O)c1Cc1c(O)c2ccccc2oc1=O | > 80 µM |
| Cc1c(N(C)CS(=O)(=O)O)c(=O)n(-c2ccccc2)n1C | > 160 µM |
| COCCOC(=O)C1=C(C)NC(C)=C(C(=O)OC/C=C/c2ccccc2)C1c1cccc([N+](=O)[O-])c1 (stereo not given) | > 10 µM |
| N=C(N)c1ccc(OCCCCCOc2ccc(C(=N)N)cc2)cc1 [Pentamidine Isothionate] | ≤ 160 µM |
| Clc1ccc(Cn2c(CN3CCCC3)nc3ccccc32)cc1 | > 160 µM |
| CN(C)C(=O)C(CCN1CCC(O)(c2ccc(Cl)cc2)CC1)(c1ccccc1)c1ccccc1 [Loperamide] | > 80 µM |
| Clc1ccccc1C(c1ccccc1)(c1ccccc1)n1ccnc1 | > 20 µM |
| CCC(C)(C)C(=O)O[C@H]1C[C@@H](C)C=C2C=C[C@H](C)[C@H](CC[C@@H]3C[C@@H](O)CC(=O)O3)[C@H]21 | > 80 µM |
| CCN(CC)CCOc1ccc(C(=C(Cl)c2ccccc2)c2ccccc2)cc1 | > 40 µM |
| NC[C@H]1O[C@H](O[C@H]2[C@H](O)[C@@H](O[C@H]3O[C@H](CO)[C@@H](O)[C@H](N)[C@H]3O)[C@H](N)C[C@@H]2N)[C@H](N)C[C@@H]1O | ≤ 20 µM |
| CN(Cc1cnc2nc(N)nc(N)c2n1)c1ccc(C(=O)N[C@@H](CCC(=O)O)C(=O)O)cc1 [Methotrexate] | > 80 µM |
| CNCCCC1c2ccccc2C=Cc2ccccc21 | > 160 µM |
| C[C@]1(Cn2ccnn2)[C@H](C(=O)O)N2C(=O)C[C@H]2S1(=O)=O | > 160 µM |
| Cc1c(Cl)cccc1Nc1ccccc1C(=O)O | > 160 µM |
| CCOC1O[C@H]([C@@H](COCc2ccccc2)OCc2ccccc2)[C@H](OCc2ccccc2)[C@H]1O (stereo not given in full) [Tribenoside] | > 40 µM |
| Cc1c(OCC(F)(F)F)ccnc1C[S+]([O-])c1nc2ccccc2[nH]1 (stereo not given) | > 160 µM |

----------
# community biomass OD578 values compiled below
- Tested on: Com21 synthetic gut community
- assay-text: community biomass OD578 after 24 h drug treatment relative to untreated (fraction of untreated control); higher = more community growth
- conditions: drug pretreatment concentration 160 µM; community: Com21 (Com20 + E. coli ED1a)

| compound | community biomass OD578 |
| --- | --- |
| CC(=O)Oc1cccc2c1C(=O)c1c(OC(C)=O)cc(C(=O)O)cc1C2=O | 0.284 |
| COc1cccc2c1C(=O)c1c(O)c3c(c(O)c1C2=O)C[C@@](O)(C(=O)CO)C[C@@H]3O[C@H]1C[C@H](N)[C@H](O)[C@H](C)O1 | 0.907 |
| COc1ccc2[nH]c([S+]([O-])Cc3ncc(C)c(OC)c3C)nc2c1 (centres undefined) | 0.95 |
| CCCc1nc2c(C)cc(-c3nc4ccccc4n3C)cc2n1Cc1ccc(-c2ccccc2C(=O)O)cc1 | 0.956 |

----------
Items are presented alongside their recorded community biomass OD578.
- Tested on: Com21 synthetic gut community
- assay-text: community biomass OD578 after 24 h drug treatment relative to untreated (fraction of untreated control); higher = more community growth
- conditions: drug pretreatment concentration 20 µM; community: Com21 (Com20 + E. coli ED1a)

| molecule | measured-target | community biomass OD578 |
| --- | --- | --- |
| C[C@H]1O[C@H](O[C@H]2[C@H](O)[C@@H](O)[C@@H](O[C@H]3[C@H](O)[C@@H](O)C(O)O[C@@H]3CO)O[C@@H]2CO)[C@H](O)[C@@H](O)[C@@H]1N[C@H]1C=C(CO)[C@@H](O)[C@H](O)[C@H]1O (stereo partly specified) [Acarbose] | Com21 synthetic gut community | 1.01 |
| CN(C)CCCN1c2ccccc2Sc2ccc(Cl)cc21 [Chlorpromazine] | Com21 synthetic gut community | 0.983 |
| CC(C)(C)c1ccc(C(O)CCCN2CCC(C(O)(c3ccccc3)c3ccccc3)CC2)cc1 (stereo unspecified) [Terfenadine] | Com21 synthetic gut community | 0.96 |
| COc1cccc2c1C(=O)c1c(O)c3c(c(O)c1C2=O)C[C@@](O)(C(=O)CO)C[C@@H]3O[C@H]1C[C@H](N)[C@H](O)[C@H](C)O1 [Doxorubicin] | Com21 synthetic gut community | 0.949 |
| O=C1NCCN1CCN1CCC(c2cn(-c3ccc(F)cc3)c3ccc(Cl)cc23)CC1 [Sertindole] | Com21 synthetic gut community | 0.991 |
| Cc1c(Cl)cccc1Nc1ccccc1C(=O)O [Tolfenamic acid] | Com21 synthetic gut community | 0.971 |
| COc1cc(C(=O)NS(=O)(=O)c2ccccc2C)ccc1Cc1cn(C)c2ccc(NC(=O)OC3CCCC3)cc12 [Zafirlukast] | Com21 synthetic gut community | 0.876 |
| O=c1oc2ccccc2c(O)c1Cc1c(O)c2ccccc2oc1=O [Dicumarol] | Com21 synthetic gut community | 0.956 |
| CN(C)C(=N)NC(=N)N [Metformin] | Com21 synthetic gut community | 1.01 |
| COCCOC(=O)C1=C(C)NC(C)=C(C(=O)OC/C=C/c2ccccc2)C1c1cccc([N+](=O)[O-])c1 (stereo unspecified) [Cilnidipine] | Com21 synthetic gut community | 1.03 |
| N[C@@H](Cc1cc(I)c(Oc2cc(I)c(O)c(I)c2)c(I)c1)C(=O)O [L-Thyroxin] | Com21 synthetic gut community | 1.03 |

----------
- Tested on: Clostridium bolteae
- assay-text: IC25 growth inhibition; higher = less potent
Each entry below carries its reported IC25 growth inhibition.

| compound | measured-target | IC25 growth inhibition |
| --- | --- | --- |
| COCCOC(=O)C1=C(C)NC(C)=C(C(=O)OC/C=C/c2ccccc2)C1c1cccc([N+](=O)[O-])c1 (stereo not drawn) | Clostridium bolteae | > 10 µM |
| Cc1ncc([N+](=O)[O-])n1CCO | Clostridium bolteae | < 1.25 µM |
| Cc1c(N(C)CS(=O)(=O)O)c(=O)n(-c2ccccc2)n1C | Clostridium bolteae | > 160 µM |
| CNCCCC1c2ccccc2C=Cc2ccccc21 | Clostridium bolteae | > 160 µM |
| C#C[C@]1(O)CC[C@H]2[C@@H]3CCc4cc(O)ccc4[C@H]3CC[C@@]21C | Clostridium bolteae | > 80 µM |
| CC(CN1c2ccccc2Sc2ccccc21)N(C)C (stereo not drawn) | Clostridium bolteae | > 160 µM |
| CN(C)C(=O)C(CCN1CCC(O)(c2ccc(Cl)cc2)CC1)(c1ccccc1)c1ccccc1 [Loperamide] | Clostridium bolteae | > 80 µM |
| O=C(O)Cc1cc(I)c(Oc2ccc(O)c(I)c2)c(I)c1 | Clostridium bolteae | ≤ 80 µM |
| CCn1cc(C(=O)O)c(=O)c2cc(F)c(N3CCNCC3)cc21 | Clostridium bolteae | ≤ 20 µM |
| O=C(Nc1ccc([N+](=O)[O-])cc1Cl)c1cc(Cl)ccc1O [Niclosamide] | Clostridium bolteae | > 80 µM |
| Nc1nc(=S)c2ncn([C@@H]3O[C@H](CO)[C@@H](O)[C@H]3O)c2[nH]1 | Clostridium bolteae | > 40 µM |
| CCn1cc(C(=O)O)c(=O)c2ccc(C)nc21 | Clostridium bolteae | > 160 µM |
| CN(C)C(=N)NC(=N)N | Clostridium bolteae | > 160 µM |
| CN(C)CC/C=C1/c2ccccc2Sc2ccc(Cl)cc21 | Clostridium bolteae | ≤ 160 µM |
| C[C@]1(Cn2ccnn2)[C@H](C(=O)O)N2C(=O)C[C@H]2S1(=O)=O | Clostridium bolteae | > 160 µM |
| NC[C@H]1O[C@H](O[C@H]2[C@H](O)[C@@H](O[C@H]3O[C@H](CO)[C@@H](O)[C@H](N)[C@H]3O)[C@H](N)C[C@@H]2N)[C@H](N)C[C@@H]1O | Clostridium bolteae | > 160 µM |
| CC(=O)Oc1cccc2c1C(=O)c1c(OC(C)=O)cc(C(=O)O)cc1C2=O | Clostridium bolteae | ≤ 2.5 µM |
| C[C@]12CCC3=C4CCC(=O)C=C4CC[C@H]3[C@@H]1CC[C@@]2(O)CC#N | Clostridium bolteae | > 80 µM |
